ASSAYED TARGET: human recombinant VNN1 enzyme (Homo sapiens)
Sequence (O95497 22-513): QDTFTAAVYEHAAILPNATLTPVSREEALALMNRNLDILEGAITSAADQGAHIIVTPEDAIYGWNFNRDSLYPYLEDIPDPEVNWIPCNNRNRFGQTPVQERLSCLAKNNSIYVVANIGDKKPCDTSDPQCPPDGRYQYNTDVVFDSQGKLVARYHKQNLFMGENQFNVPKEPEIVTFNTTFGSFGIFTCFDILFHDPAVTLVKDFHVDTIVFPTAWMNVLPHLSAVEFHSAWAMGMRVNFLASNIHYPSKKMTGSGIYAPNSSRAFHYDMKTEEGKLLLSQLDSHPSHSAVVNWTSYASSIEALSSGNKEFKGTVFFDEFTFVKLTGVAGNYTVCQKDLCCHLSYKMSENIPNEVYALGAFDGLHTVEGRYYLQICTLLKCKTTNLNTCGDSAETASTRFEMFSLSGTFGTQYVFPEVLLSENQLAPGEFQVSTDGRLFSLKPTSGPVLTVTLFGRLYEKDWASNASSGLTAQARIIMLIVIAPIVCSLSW
PROTOCOL DESCRIPTION: Inhibitory activity against human recombinant VNN1 enzyme in vitro with fluorescent probe PA-AFC
RUN CONDITIONS: human recombinant VNN1 30 ng/ml, probe PA-AFC 20 μM, 37°C, 30 min + 30 min
READOUT LABEL: IC50 (µM)

O=C(c1ccc(NCc2cnccn2)cc1)N1CCC2(CCOCC2)C1 [c] = 30.3

a: O=C(c1ccc(NCc2cnccn2)cn1)N1CCC2(CCOCC2)C1 [g]
b: O=C(c1ccc(NCc2cccnc2)cc1)N1CC2(CCOCC2)C1 [b]
Enquiry: Select one. Lower IC50: a or b Let me know the label of the one you choose.
Return: b
(b: 26.2 µM, a: 51.5 µM)
